Values from paper PMC10464304

Target: T1, GST-hUHRF1-TTD (126-280) R207A (human, UniProt Q96T88 126-280, R207A)
T1 construct: Tandem Tudor domain (TTD) of human UHRF1, UniProt Q96T88, residues 126-280; source: E. coli, purified (Glutathione Agarose 4B); not shown: GST, N-terminal, kept
T1 sequence (looked up): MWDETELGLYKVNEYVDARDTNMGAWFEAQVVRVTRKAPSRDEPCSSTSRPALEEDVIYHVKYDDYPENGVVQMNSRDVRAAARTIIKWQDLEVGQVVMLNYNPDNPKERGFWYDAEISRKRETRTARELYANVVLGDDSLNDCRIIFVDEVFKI
Assay: fluorescence polarisation; fluorescence anisotropy titration; 100 nM FITC-labeled peptide in the cuvette, protein added stepwise; 23°C; 100 mM KCl, 20 mM HEPES pH 7.5, 10% v/v glycerol
Conditions: both partners purified
No end group written: not given here. Me3 = trimethyl (trimethyl-lysine)
# Lookup of reported Kd keyed by entry
The reply must contain the numeric value and, after it, the unit.

ARTKQTARKSTGGKAPRKQ (peptide, UniProt P68431 2-20, looked up, K9me3 (trimethyl-lysine at 9); FITC-labeled, histone H3 N-terminal tail, residues 1-19; also called H3K9me3; H3 K9me3) [FITC-labeled H3(1-19) peptide with K9me3]; 900 nM

Could you now consider this next binder?
# get_value(readout='Kd', item= ARTK(Me)QTARK(Me3)STGGKAPRKQ (peptide, UniProt P68431 2-20, looked up, also: FITC-labeled (position not given here), histone H3 N-terminal tail, residues 1-19; also called H3K4me1-K9me3; H3 K4me1-K9me3) [FITC-labeled H3(1-19) peptide with K4me1 and K9me3] ) 370 nM
